B1: GA-binding protein alpha chain, residues 172 to 250; numbered along this chain, Q06546 (parent)
chain: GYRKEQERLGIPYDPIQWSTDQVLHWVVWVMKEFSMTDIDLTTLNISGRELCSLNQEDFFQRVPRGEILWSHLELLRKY

variants of: B1; experiment: abundance fitness (aPCA) (normalised: wild type 0, dead -1); higher = more abundant; growth selection in yeast, the domain comes from the species named; details: Homo sapiens
Value kind: abundance fitness
Format: numeric value only, no unit, no commentary.

response.value for "L44M" (field: abundance fitness) = -0.019

Summary for this variant, "N55T" : abundance fitness is -0.025

GET /value?item= "D40H" &field=abundance fitness returns -0.223

// "Q56W" : abundance fitness value = -0.351
